- system-name: human CD38 on cells (human, UniProt P28907 1-300)
- measurement-protocol: cell-based or functional assay
measurement-label: CDC, specific viability of Daudi cells at 1.25 µg/mL or higher with complement (%)
Give bare numbers, in %.

Recorded result, ch38SB31 chimeric anti-CD38 antibody (antibody, V domains shown, also called chimeric 38SB31) VH: DVKLVESGGGLVKPGGSLKLSCEASGFTFSSYTLSWVRQTPETRLEWVATISIGGRYTYYPDSVEGRFTISRDNAKNTLYLQMNSLKSEDTAMYYCTRDFNGYSDFWGQGTTLTVSS VL: DTVMTQSHKFISTSVGDRVSITCKASQVVGSAVAWYQQKPGQSPKLLIYWASTRHTGVPDRFTGSGSGTDFTLTISNVQSEDLADYFCQQYNSYPYTFGGGTKLEIKR , CDC, specific viability of Daudi cells at 1.25 µg/mL or higher with complement: 53
